- Tested on: MDA-MB-435 melanoma
- methodNotes: NCI-60 one-dose screen, 48 h (100 = growth as untreated, 0 = no growth, -100 = all killed)
- recordedConditions: 10 µM unless noted
The panel holds about 83,000 compounds, 20% with a hit somewhere; the sample as a whole holds those more often.
metricName: growth (%)
Numeric answer only, unit % assumed.

molecule: CCOc1cc2ncc(C#N)c(Nc3ccc(OCc4ccccn4)c(Cl)c3)c2cc1NC(=O)/C=C/CN(C)C
metricName: growth
recordedValue: -87.7

molecule: CCOC(=O)C1=C(C)N=C2Sc3cc(OC(F)(F)F)ccc3N2[C@H]1c1ccccn1
metricName: growth
recordedValue: 51.1

molecule: CC(C)(O)CC(=O)NCCn1ccc2ncnc(Nc3ccc(Oc4cccc(C(F)(F)F)c4)c(Cl)c3)c21
metricName: growth
recordedValue: 14.3

molecule: Cc1cc(-c2cc(O)ccc2Cl)cc2nnc(Nc3ccc(OCCN4CCCC4)cc3)nc12
metricName: growth
recordedValue: -73.3

molecule: CC1(COc2ccc3c(c2)ncn3-c2ccc3cccc(N4CCC(N)CC4)c3n2)COC1
metricName: growth
recordedValue: 65.5

Value lookup for growth; key = `COc1ccc2c(CCC(c3ccccc3)c3ccccc3)c3[n+](cc2c1OC)CCc1cc2c(cc1-3)OCO2` -72

Value lookup for growth; key = CC(=Nc1ccccc1)C1=C(O)C(Cc2ccc(O)cc2)NC1=O (centres undefined) -8.69

Value lookup for growth; key = `O=C1NC(=O)C(c2cnc3ccccn23)=C1c1cn2c3c(cc(F)cc13)CN(C(=O)N1CCCCC1)CC2` 51.2

Value lookup for growth; key = `O=C(Nc1ccc(C2=NCCCN2)cc1)c1ccc(C(=O)Nc2ccc(C3=NCCCN3)cc2)nc1` 117

---

- Test system: MDA-MB-435 melanoma
- methodNotes: NCI-60 one-dose screen, 48 h
- recordedConditions: 10 µM unless noted
Compounds without any hit were thinned out: in the full panel of roughly 83,000, 20% have a hit. Active and inactive are the calls of the source. The calls were made as follows: active = growth percent below 10; inactive = the rest.
Response enum: label 1 (active), label 0 (inactive)

Known results for compounds:
compound: C=CCCCC(=O)CCC(=O)OCC1O[C@@H](O[C@@H]2C(O)[C@@H](OC(C)=O)C(C)O[C@H]2O[C@H](CC=C)CCCCC)C(O)[C@@H](OC(=O)/C(C)=C/C)[C@@H]1OC(=O)/C=C/c1ccccc1 (stereo partly drawn)
qualitativeLabel: label 1
--
compound: COc1ccc(/C(C)=C(\c2ccc(Cl)cc2)c2ccc(OCCN3CCCCCC3)cc2)cc1
qualitativeLabel: label 0
--
compound: Cc1ccc(-c2cc3c(SCC(=O)Nc4cc(C(F)(F)F)ccc4Cl)nccn3n2)cc1
qualitativeLabel: label 0
--
compound: Cc1ccsc1C(NC(=O)c1ccccc1)c1cc(Cl)c2cccnc2c1O (stereo not drawn)
qualitativeLabel: label 0
--
compound: Cc1ccc(C(=O)Nc2ccc(CN3CCN(C)CC3)c(C(F)(F)F)c2)cc1C#Cc1cnc2cccnn12
qualitativeLabel: label 1
--
compound: COc1ccc(COc2cc3oc(=O)c4cc(C(C)O)ccc4c3cc2OC)cc1 (stereo not drawn)
qualitativeLabel: label 1
--
compound: O=C(Nc1ccc(-c2ccnc(Nc3ccc(N4CCOCC4)cc3)n2)cc1)[C@@H]1CCCN1
qualitativeLabel: label 0
--
compound: CCN(CC)CCNc1ccc(N=Nc2cnc3ccccc3c2)c2ccccc12
qualitativeLabel: label 1

What classification did `CCc1cnn2c(NCc3ccc[n+]([O-])c3)cc(N3CCCC[C@H]3CCO)nc12` end up with in this test? label 1

What classification did `CCN(CCO)CCCOc1ccc2c(Nc3cc(CC(=O)Nc4cccc(F)c4)[nH]n3)ncnc2c1` end up with in this test? label 0

What classification did `COc1cnc2c(c1)C(=O)c1c-2n(CCCN2CCC(N)CC2)c(=O)c2cc([N+](=O)[O-])ccc12` end up with in this test? label 0

What classification did `COc1cnc2c(c1)C(=O)c1c-2n(CCCN2CCC(O)CC2)c(=O)c2cc(Cl)ccc12` end up with in this test? label 0

What classification did `NC(=O)Nc1cc(-c2cccc(F)c2)sc1C(=O)N[C@H]1CCCNC1` end up with in this test? label 1

What classification did `O=c1sn(-c2cccc3ccccc23)c(=O)n1Cc1ccccc1` end up with in this test? label 0

What classification did `COc1cc(Nc2ncc(F)c(Nc3ccc4c(n3)N(COP(=O)(O)O)C(=O)C(C)(C)O4)n2)cc(OC)c1OC` end up with in this test? label 0

What classification did `COC(=O)c1[nH]cnc1/N=N/N(C)CCO` end up with in this test? label 0

What classification did `CNC(=O)c1cc(Oc2ccc3nc(NC(=O)Nc4ccc(Cl)c(C(F)(F)F)c4)sc3c2)ccn1` end up with in this test? label 0

What classification did `CCn1cc(-c2ccnc3[nH]c(-c4cccc(CN(C)C)c4)cc23)c(-c2ccc(NC(=O)N(C)C)cc2)n1` end up with in this test? label 0
